Cited source: patent US7205275

Provide the reported pIC50 of each item.
ASSAYED SYSTEM: T1, human Ang-2 (human, UniProt O15123)
T1 chain: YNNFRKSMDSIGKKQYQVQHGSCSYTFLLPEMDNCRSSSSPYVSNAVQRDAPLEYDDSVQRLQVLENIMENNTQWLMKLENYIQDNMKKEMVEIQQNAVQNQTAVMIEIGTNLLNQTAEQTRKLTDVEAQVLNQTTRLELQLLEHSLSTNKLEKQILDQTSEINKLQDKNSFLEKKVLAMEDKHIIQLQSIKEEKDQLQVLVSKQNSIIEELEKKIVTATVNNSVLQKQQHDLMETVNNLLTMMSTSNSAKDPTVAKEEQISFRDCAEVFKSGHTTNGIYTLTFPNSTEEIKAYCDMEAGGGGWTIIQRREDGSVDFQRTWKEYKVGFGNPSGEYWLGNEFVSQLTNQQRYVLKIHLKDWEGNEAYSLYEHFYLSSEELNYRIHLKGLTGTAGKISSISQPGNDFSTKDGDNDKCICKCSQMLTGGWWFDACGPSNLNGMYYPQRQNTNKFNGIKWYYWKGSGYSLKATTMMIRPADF
METHOD DESCRIPTION: competition ELISA vs Tie-2
Primed or numbered codes have the meaning given here. Where no end group is shown, it is not given here. [ ]: non-standard residue; d: D form. Fc(3) = Fc: non-antigen-binding fragment of an antibody from proteolytic digestion of a whole antibody (vehicle); Fc(7) = Fc domain, peptide fused N- or C-terminal to it
The scale used: pIC50 is minus the common logarithm of the concentration in molar units.

Answer with the recorded pIC50 for the binder listed here: MGAQTNFQPLDELDQTLYEQWTLQQRLEGGGGG-Fc [L1-C3 (N)] 10.22

Answer with the recorded pIC50 for the binder listed here: MGAQVKYKPLDELDEWLYHQFTLHHQLEGGGGG[Fc(3)] [L1-17 (N)] 10.10

Answer with the recorded pIC50 for the binder listed here: MGAQYKFTPLDDLEQTLYEQWTLQHVLEGGGGG[Fc(3)] [L1-12 (N)] 10.10

Answer with the recorded pIC50 for the binder listed here: M[Fc(7)]GGGGGAQLLDYCEGVQDPFTFGCENLDLE (not fully specified (bridges); cysteine pairing not given here) [12-9-5 (C)] 8.81

Answer with the recorded pIC50 for the binder listed here: MGAQSKFKPLDELEQTLYEQWTLQHALEGGGGG-Fc [L1-9 (N)] 8.79

Answer with the recorded pIC50 for the binder listed here: MGAQQNFKPMDELEDTLYKQFLFQHSLEGGGGG[Fc(3)] [L1-11 (N)] 10.15
